Target: T1, C5a receptor (C5aR) expressed on the surface of human PMNs (human, UniProt P21730 1-350)
T1 construct: whole, on cells; Endogenous receptor on intact human polymorphonuclear cells; also called C5aRs
T1 sequence (looked up): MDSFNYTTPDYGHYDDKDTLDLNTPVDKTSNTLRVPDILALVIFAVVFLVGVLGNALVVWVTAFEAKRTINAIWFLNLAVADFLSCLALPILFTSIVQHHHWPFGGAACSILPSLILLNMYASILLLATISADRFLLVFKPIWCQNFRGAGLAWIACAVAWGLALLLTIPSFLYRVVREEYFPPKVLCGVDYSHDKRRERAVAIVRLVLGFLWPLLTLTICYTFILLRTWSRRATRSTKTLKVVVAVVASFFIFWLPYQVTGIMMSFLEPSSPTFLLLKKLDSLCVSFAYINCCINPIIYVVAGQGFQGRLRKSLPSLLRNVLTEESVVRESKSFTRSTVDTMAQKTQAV
Experiment: competition with 125I-C5a on intact human PMNs
Where no end group is shown, it is not given here. [ ]: non-standard residue; d: D form.
PROPERTY_MEASURED: pD2 (-log IC50 (M))

Enquiry: Reported pD2 (-log IC50 (M)) for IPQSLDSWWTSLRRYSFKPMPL[dA]R (Synthetic peptide; also called RR-containing construct) [IPQSLDSWWTSLRRYSFKPMPLaR (double-Arg-linked C5a-active construct)] : what is it?
Return: 6.38 -log IC50 (M)

Enquiry: Reported pD2 (-log IC50 (M)) for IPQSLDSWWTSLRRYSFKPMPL[dA]RG (Synthetic peptide) : what is it?
Return: 4.77 -log IC50 (M)

Enquiry: Reported pD2 (-log IC50 (M)) for YSFKPMPL[dA]RRRIPQSLDSWWTSL (Synthetic peptide) [YSFKPMPLa[…] (C5a-inactive construct, C-terminus of agonist blocked by the HBsAg CTL epitope)] : what is it?
Return: 3.33 -log IC50 (M)

Enquiry: Reported pD2 (-log IC50 (M)) for natural C5a (ligand, UniProt P01031 678-751, looked up, 125I label on the tracer form used in the competition assay, C5a is only a fragment of it) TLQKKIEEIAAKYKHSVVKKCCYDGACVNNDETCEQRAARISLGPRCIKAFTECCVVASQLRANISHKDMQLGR : what is it?
Return: 9.43 -log IC50 (M)

Enquiry: Reported pD2 (-log IC50 (M)) for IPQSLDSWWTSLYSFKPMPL[dA]R (Synthetic peptide; also called C5a-active construct without linker) [IPQSLDSWWTSLYSFKPMPLaR (HBsAg CTL epitope attached directly to N-terminus of the C5a agonist)] : what is it?
Return: 5.43 -log IC50 (M)

Enquiry: Reported pD2 (-log IC50 (M)) for YSFKPMPL[dA]R (Synthetic peptide; also called C5a agonist; peptide (2)) [C5a C-terminal decapeptide agonist analog YSFKPMPLaR] : what is it?
Return: 5.63 -log IC50 (M)

Enquiry: Reported pD2 (-log IC50 (M)) for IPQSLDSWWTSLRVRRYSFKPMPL[dA]R (Synthetic peptide; also called RVRR-containing construct) [IPQSLDSWWTSLRVRRYSFKPMPLaR (RVRR furin-sensitive-linked C5a-active construct)] : what is it?
Return: 6.28 -log IC50 (M)
